Readout type: melting point

Study these solved cases before continuing.
{"Compound": "O=C(O)C1Cc2c([nH]c3ccccc23)C(CO)N1 (centres undefined)", "Value measured": "231 to 233 °C"}
{"Compound": "CCOC(=O)N(c1ccccc1-n1nc(C(=O)O)nc1CCl)c1cccc(C)c1C", "Value measured": "188 to 190 °C"}
{"Compound": "CC(C)(C)OC(=O)Nc1ccc(C#Cc2ccccc2F)cc1N", "Value measured": "137 to 139 °C"}

-- ask Which value of melting point has been reported for CCn1nc(-c2sc(N)nc2-c2ccccc2)ccc1=O in the records?
-- reply 232 to 235 °C

-- ask Which value of melting point has been reported for COc1c(Cl)cc2c(Cl)nc(Cl)nc2c1OC in the records?
-- reply 154 to 155 °C
